# System: HT 29
# ASSAY_METHOD_TEXT: Growth inhibition test (MTT), cytotoxic action on tumour cell lines
# Format: cell-based
# CONDITION_DESCRIPTION: Homo sapiens, HT-29, 144 h, read-out: IC50 values of the cytotoxic action on tumour cell lines, HT 29
QUANTITY_KIND: IC50 (nM)

- COMPOUND: "CC[C@@]1(OC(=O)[C@@H](NC(=O)[C@H](Cc2cnc[nH]2)NC(=S)Nc2cccc(C(CC(=O)O)NS(=O)(=O)c3ccc(-c4cccc(NC(=O)Nc5nc6ccccc6[nH]5)c4)cc3)c2)C(C)C)C(=O)OCc2c1cc1n(c2=O)Cc2cc3ccccc3nc2-1 (stereo partly shown)"
  REPORTED_VALUE: 200
- COMPOUND: "CC[C@@]1(OC(=O)[C@@H](NC(=O)CC[C@H](NC(=O)CC(NC(=O)CNC(=O)c2cccc(NC(=N)N)c2)c2ccccc2)C(=O)O)C(C)C)C(=O)OCc2c1cc1n(c2=O)Cc2cc3ccccc3nc2-1 (stereo partly shown)"
  REPORTED_VALUE: 500
- COMPOUND: "CCCNC(=O)Nc1cccc(-c2ccc(CC(NC(=O)N[C@H](C(=O)O[C@]3(CC)C(=O)OCc4c3cc3n(c4=O)Cc4cc5ccccc5nc4-3)C(C)C)C(=O)O)cc2)c1 (stereo partly shown)"
  REPORTED_VALUE: 100
- COMPOUND: "CCCNC(=O)Nc1cccc(S(=O)(=O)Nc2cccc(C(CC(=O)O)NS(=O)(=O)c3ccc(NC(=S)N[C@@H](Cc4c[nH]cn4)C(=O)N[C@H](C(=O)O[C@]4(CC)C(=O)OCc5c4cc4n(c5=O)Cc5cc6ccccc6nc5-4)C(C)C)cc3)c2)c1 (stereo partly shown)"
  REPORTED_VALUE: 150

---

# SYSTEM: αvβ3 receptor (αvβ3 from human A375 cells) (Homo sapiens, UniProt P05106+P06756)
# Construct: αvβ3 from human A375 cells was purified analogously to a procedure which was described by Wong et al; endogenous in cells; host or cells: human A375 cells; the receptor was purified from the cells and used detergent-solubilised (n-octyl-glucopyranoside)
# Sequence (P06756 31-889 limits assumed): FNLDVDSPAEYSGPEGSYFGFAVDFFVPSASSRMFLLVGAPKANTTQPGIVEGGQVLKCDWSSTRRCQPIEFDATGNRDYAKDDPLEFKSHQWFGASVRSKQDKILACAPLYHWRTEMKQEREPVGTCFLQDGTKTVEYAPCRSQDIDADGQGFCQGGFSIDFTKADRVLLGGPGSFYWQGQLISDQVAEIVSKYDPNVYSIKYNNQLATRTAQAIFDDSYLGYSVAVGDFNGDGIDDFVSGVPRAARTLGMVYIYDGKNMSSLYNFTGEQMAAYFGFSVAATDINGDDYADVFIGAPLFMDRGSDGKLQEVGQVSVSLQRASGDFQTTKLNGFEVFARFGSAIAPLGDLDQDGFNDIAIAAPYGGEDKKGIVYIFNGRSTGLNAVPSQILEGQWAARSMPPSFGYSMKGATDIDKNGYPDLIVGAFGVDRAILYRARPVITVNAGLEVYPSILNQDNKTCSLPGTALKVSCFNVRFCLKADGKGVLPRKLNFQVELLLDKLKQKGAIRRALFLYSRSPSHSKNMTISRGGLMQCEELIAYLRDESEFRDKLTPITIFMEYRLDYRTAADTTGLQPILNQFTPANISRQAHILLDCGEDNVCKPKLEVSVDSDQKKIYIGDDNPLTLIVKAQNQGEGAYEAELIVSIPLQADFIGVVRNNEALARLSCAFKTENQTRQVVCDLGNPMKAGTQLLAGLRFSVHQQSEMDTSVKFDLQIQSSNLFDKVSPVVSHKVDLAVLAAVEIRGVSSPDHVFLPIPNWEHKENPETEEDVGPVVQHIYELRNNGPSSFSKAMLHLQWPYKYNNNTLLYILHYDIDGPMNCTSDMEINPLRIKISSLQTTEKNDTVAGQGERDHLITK
# Sequence (P06756 891-1048 partner limits assumed): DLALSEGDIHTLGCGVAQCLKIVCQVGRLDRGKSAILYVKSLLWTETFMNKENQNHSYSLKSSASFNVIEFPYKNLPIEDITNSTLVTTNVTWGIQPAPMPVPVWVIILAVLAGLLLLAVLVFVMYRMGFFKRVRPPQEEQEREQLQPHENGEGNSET
# Sequence (P05106 27-788): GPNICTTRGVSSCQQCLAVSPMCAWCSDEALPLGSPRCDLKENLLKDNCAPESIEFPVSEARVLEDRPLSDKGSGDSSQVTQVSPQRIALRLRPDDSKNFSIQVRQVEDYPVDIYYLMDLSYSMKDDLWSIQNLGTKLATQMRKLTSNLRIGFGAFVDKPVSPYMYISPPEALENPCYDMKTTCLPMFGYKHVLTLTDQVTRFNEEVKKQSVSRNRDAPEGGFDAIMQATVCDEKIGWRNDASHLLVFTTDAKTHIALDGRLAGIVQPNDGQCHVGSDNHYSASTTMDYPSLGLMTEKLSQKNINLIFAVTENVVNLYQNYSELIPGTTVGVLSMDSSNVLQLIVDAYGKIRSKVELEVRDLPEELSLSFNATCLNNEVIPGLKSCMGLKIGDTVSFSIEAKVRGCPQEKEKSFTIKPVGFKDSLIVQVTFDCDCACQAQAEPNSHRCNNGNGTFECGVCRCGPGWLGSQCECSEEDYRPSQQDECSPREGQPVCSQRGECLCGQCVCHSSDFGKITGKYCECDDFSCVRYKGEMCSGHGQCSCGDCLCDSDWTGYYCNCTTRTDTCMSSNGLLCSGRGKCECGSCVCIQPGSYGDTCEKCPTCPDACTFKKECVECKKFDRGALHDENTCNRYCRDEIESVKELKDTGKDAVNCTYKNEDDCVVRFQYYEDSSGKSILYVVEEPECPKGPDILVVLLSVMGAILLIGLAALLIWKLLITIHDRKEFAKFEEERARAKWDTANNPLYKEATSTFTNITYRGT
# ASSAY_METHOD_TEXT: αvβ3 binding test (echistatin displacement, WGA SPA beads)
# CONDITION_DESCRIPTION: αvβ3 purified from human A375 cells; labelled echistatin; read-out: IC50 values of the binding to the αvβ3 receptor
# Method: αvβ3 from human A375 cells was purified analogously to a procedure which was described by Wong et al. (Molecular Pharmacology, 50, 529–537 (1996)). […] After 16 hours at room temperature, the samples were measured in a scintillation measuring apparatus (Wallac 1450).
pIC50: −log10 of the molar value.
Items are presented alongside their recorded pIC50.

- COMPOUND: "CCCNC(=O)Nc1cccc(-c2ccc(CC(NC(=O)N[C@H](C(=O)O[C@]3(CC)C(=O)OCc4c3cc3n(c4=O)Cc4cc5ccccc5nc4-3)C(C)C)C(=O)O)cc2)c1 (stereo partly drawn)"
  SYSTEM: "αvβ3 receptor (αvβ3 from human A375 cells) (Homo sapiens, UniProt P05106+P06756)"
  pIC50: 7.68
- COMPOUND: "CC[C@@]1(OC(=O)[C@@H](NC(=O)CNC(=O)CCCC(=O)NC(CC(=O)O)c2cccc(NS(=O)(=O)c3cccc(NC(=N)N)c3)c2)C(C)C)C(=O)OCc2c1cc1n(c2=O)Cc2cc3ccccc3nc2-1 (stereo partly drawn)"
  SYSTEM: "αvβ3 receptor (αvβ3 from human A375 cells) (Homo sapiens, UniProt P05106+P06756)"
  pIC50: 7.32
- COMPOUND: "CC[C@@]1(OC(=O)[C@@H](NC(=O)[C@H](Cc2c[nH]cn2)NC(=O)Nc2cccc(-c3cccc(S(=O)(=O)NC(CC(=O)O)c4ccccc4)c3)c2)C(C)C)C(=O)OCc2c1cc1n(c2=O)Cc2cc3ccccc3nc2-1 (stereo partly drawn)"
  SYSTEM: "αvβ3 receptor (αvβ3 from human A375 cells) (Homo sapiens, UniProt P05106+P06756)"
  pIC50: 7.00
